# system name: hNaV1.6 (Homo sapiens)
# protocol details: ATX‐II‐induced persistent INa, whole‐cell patch clamp
# reported conditions: Persistent INa, IC50, hNaV1.6, 200 nmol·L^–1 ATX‐II, holding −120 mV
property: IC50 (µM)
Report the value in µM with no unit label.

Specify measured IC50 for NC(=O)N1c2ccccc2C=Cc2ccccc21 [Carbamazepine, carbamazepine] .
77.5

====

Quick reference: Peak INa TB, slope of the listed items.
# system name: hNaV1.6 (Homo sapiens)
# protocol details: Peak INa tonic block
# Assay type: cell-based
# reported conditions: Hill slope, hNaV1.6
Reply: number alone, nothing else.

compound | recorded number
NC(=O)O[C@@H](Cn1ncnn1)c1ccccc1Cl [Cenobamate] | 1.1
NC(=O)N1c2ccccc2C=Cc2ccccc21 [Carbamazepine, carbamazepine] | 1.0
CCOC(F)(F)c1nnc2cnc(-c3cnc(OCC(F)(F)F)c(F)c3)cn12 [PRAX‐562] | 1.0

Specify measured Peak INa TB, slope for NC(=O)N1c2ccccc2CC(=O)c2ccccc21 [Oxcarbazepine] .
1.7

====

# system name: hNaV1.6 (Homo sapiens)
# protocol details: Peak INa voltage‐dependent block
# reported conditions: Hill slope
property: Peak INa VDB, slope
Reply: number alone, nothing else.

Worked examples follow.
compound | Peak INa VDB, slope
CCOC(F)(F)c1nnc2cnc(-c3cnc(OCC(F)(F)F)c(F)c3)cn12 | 1.0
COC[C@@H](NC(C)=O)C(=O)NCc1ccccc1 [Lacosamide] | 1.2
O=C1NC(=O)C(c2ccccc2)(c2ccccc2)N1 | 1.0

Here is another compound to look at.
Specify measured Peak INa VDB, slope for NC(=O)N1c2ccccc2CC(=O)c2ccccc21 [Oxcarbazepine] .
1.1

====

# system name: hNaV1.6 (Homo sapiens, UniProt Q9UQD0)
# Sequence (Q9UQD0 whole entry): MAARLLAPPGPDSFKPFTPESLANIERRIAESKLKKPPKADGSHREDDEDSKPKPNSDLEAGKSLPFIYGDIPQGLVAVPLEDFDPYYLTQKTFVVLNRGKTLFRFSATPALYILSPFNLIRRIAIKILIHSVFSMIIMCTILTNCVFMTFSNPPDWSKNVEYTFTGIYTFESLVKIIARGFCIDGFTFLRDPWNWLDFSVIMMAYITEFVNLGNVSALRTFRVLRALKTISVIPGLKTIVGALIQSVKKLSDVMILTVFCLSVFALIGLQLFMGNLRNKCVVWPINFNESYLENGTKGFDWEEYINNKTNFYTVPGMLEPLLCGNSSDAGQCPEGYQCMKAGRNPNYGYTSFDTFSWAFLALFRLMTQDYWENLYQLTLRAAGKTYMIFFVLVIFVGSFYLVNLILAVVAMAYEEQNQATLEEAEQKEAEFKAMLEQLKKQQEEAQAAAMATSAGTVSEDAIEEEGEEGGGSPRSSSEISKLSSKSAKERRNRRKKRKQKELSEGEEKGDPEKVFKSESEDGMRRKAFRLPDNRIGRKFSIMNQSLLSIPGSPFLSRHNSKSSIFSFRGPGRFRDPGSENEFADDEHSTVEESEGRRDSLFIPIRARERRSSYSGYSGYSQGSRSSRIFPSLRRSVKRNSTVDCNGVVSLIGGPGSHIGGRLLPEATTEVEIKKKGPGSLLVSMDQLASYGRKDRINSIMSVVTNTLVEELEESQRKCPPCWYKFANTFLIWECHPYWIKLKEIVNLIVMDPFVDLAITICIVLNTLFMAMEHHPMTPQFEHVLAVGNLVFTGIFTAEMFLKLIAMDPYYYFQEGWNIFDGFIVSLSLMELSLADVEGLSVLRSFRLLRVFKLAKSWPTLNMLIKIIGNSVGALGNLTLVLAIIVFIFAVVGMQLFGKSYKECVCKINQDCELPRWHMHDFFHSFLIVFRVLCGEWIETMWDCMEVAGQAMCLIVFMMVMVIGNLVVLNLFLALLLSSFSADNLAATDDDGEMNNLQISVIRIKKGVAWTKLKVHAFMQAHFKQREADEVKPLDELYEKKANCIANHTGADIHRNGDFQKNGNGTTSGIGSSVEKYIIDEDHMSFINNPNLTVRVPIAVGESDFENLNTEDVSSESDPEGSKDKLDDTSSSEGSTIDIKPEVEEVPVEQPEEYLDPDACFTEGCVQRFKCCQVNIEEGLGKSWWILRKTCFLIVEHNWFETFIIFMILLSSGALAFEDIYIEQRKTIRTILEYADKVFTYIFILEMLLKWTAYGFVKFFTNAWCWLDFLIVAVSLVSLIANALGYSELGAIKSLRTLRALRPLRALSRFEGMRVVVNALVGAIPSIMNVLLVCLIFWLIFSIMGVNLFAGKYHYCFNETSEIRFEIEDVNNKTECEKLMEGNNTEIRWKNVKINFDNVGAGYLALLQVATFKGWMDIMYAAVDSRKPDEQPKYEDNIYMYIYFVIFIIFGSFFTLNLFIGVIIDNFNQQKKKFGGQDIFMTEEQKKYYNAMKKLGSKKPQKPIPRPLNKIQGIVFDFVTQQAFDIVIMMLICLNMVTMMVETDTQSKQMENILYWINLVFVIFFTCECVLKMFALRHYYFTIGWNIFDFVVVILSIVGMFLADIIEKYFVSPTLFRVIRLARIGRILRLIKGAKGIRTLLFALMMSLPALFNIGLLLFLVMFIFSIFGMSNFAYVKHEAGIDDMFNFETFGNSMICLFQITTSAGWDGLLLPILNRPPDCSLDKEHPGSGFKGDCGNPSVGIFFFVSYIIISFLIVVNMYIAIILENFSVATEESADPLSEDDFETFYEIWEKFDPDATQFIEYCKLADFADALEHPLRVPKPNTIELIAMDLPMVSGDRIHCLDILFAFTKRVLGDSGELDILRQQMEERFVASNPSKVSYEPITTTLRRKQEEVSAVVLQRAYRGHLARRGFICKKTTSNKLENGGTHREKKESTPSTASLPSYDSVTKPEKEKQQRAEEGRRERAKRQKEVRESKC
# protocol details: ATX‐II‐induced persistent INa, whole‐cell patch clamp
# reported conditions: Hill slope of IC50 fit, hNaV1.6
Quick reference: Persistent INa, slope of the listed items.
Reply: number alone, nothing else.

compound | Persistent INa, slope
NC(=O)N1c2ccccc2CC(=O)c2ccccc21 [Oxcarbazepine] | 1.0
NC(=O)N1c2ccccc2C=Cc2ccccc21 [Carbamazepine, carbamazepine] | 1.1
NC(=O)O[C@@H](Cn1ncnn1)c1ccccc1Cl [Cenobamate] | 1.1
CCOC(F)(F)c1nnc2cnc(-c3cnc(OCC(F)(F)F)c(F)c3)cn12 [PRAX‐562] | 1.2

Here is another compound to look at.
Specify measured Persistent INa, slope for Nc1nnc(-c2cccc(Cl)c2Cl)c(N)n1 [Lamotrigine, lamotrigine] .
1.0

====

# system name: hNaV1.6 (Homo sapiens, UniProt Q9UQD0)
# protocol details: Peak INa use‐dependent block
# Format: cell-based
# reported conditions: hNaV1.6; UDB IC50 / persistent INa IC50
Quick reference: Ratio to persistent INa (peak INa UDB) of the listed items.
Reply: number alone, nothing else.

Worked examples follow.
compound | system name | property | recorded number
O=C1NC(=O)C(c2ccccc2)(c2ccccc2)N1 | hNaV1.6 (Homo sapiens, UniProt Q9UQD0) | Ratio to persistent INa (peak INa UDB) | 15
NC(=O)O[C@@H](Cn1ncnn1)c1ccccc1Cl [Cenobamate] | hNaV1.6 (Homo sapiens, UniProt Q9UQD0) | Ratio to persistent INa (peak INa UDB) | 11

Here is another compound to look at.
State Ratio to persistent INa (peak INa UDB) on hNaV1.6 (Homo sapiens, UniProt Q9UQD0). Entry: CCOC(F)(F)c1nnc2cnc(-c3cnc(OCC(F)(F)F)c(F)c3)cn12
2

====

# system name: hNaV1.6 (Homo sapiens, UniProt Q9UQD0)
# protocol details: Peak INa use‐dependent block
# Type: cell-based
# reported conditions: Hill slope, hNaV1.6
property: Peak INa UDB, 10 Hz, slope

State Peak INa UDB, 10 Hz, slope on hNaV1.6 (Homo sapiens, UniProt Q9UQD0). Entry: O=C1NC(=O)C(c2ccccc2)(c2ccccc2)N1
.6

State Peak INa UDB, 10 Hz, slope on hNaV1.6 (Homo sapiens, UniProt Q9UQD0). Entry: NC(=O)N1c2ccccc2C=Cc2ccccc21 [Carbamazepine, carbamazepine]
.9

State Peak INa UDB, 10 Hz, slope on hNaV1.6 (Homo sapiens, UniProt Q9UQD0). Entry: NC(=O)O[C@@H](Cn1ncnn1)c1ccccc1Cl [Cenobamate]
.7

====

Quick reference: Peak INa VDB, slope of the listed items.
# system name: hNaV1.6 (Homo sapiens)
# protocol details: Peak INa voltage‐dependent block
# reported conditions: Hill slope

compound | Peak INa VDB, slope
NC(=O)O[C@@H](Cn1ncnn1)c1ccccc1Cl [Cenobamate] | .9

State Peak INa VDB, slope on hNaV1.6 (Homo sapiens). Entry: NC(=O)N1c2ccccc2C=Cc2ccccc21 [Carbamazepine, carbamazepine]
.9

State Peak INa VDB, slope on hNaV1.6 (Homo sapiens). Entry: Nc1nnc(-c2cccc(Cl)c2Cl)c(N)n1 [Lamotrigine, lamotrigine]
.9
